# target or test system: T1, 4H3438-AA
# T1 chain: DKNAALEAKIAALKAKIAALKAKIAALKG
# procedure summary: two-hybrid library CCmax;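 further: natural log of median RNA to DNA barcode read ratio; higher means stronger binding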
# condition set: mean of both orientations
quantity: interaction score

>  <binder>
DKIAALKAKNAALEAKNAALKAEIAALEG [4H3001-AA]

>  <interaction score>
-1.83

$$$$
>  <binder>
DENAALKAKIAALEAKIAALEAENAALKG [4H1828-AA]

>  <interaction score>
-1.01

$$$$

[A] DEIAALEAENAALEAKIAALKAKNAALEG [4H175-AA]
[B] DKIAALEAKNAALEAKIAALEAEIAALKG [4H2466-AA]
Inquiry: Of A and B , whose reported interaction score is numerically smaller? The response must carry the label of the picked entry.
Reply text: B
